tested.target: Androgen Receptor (Homo sapiens, UniProt P10275)
Construct: endogenous in cells; host or cells: VCaP cells
Sequence (P10275 whole entry): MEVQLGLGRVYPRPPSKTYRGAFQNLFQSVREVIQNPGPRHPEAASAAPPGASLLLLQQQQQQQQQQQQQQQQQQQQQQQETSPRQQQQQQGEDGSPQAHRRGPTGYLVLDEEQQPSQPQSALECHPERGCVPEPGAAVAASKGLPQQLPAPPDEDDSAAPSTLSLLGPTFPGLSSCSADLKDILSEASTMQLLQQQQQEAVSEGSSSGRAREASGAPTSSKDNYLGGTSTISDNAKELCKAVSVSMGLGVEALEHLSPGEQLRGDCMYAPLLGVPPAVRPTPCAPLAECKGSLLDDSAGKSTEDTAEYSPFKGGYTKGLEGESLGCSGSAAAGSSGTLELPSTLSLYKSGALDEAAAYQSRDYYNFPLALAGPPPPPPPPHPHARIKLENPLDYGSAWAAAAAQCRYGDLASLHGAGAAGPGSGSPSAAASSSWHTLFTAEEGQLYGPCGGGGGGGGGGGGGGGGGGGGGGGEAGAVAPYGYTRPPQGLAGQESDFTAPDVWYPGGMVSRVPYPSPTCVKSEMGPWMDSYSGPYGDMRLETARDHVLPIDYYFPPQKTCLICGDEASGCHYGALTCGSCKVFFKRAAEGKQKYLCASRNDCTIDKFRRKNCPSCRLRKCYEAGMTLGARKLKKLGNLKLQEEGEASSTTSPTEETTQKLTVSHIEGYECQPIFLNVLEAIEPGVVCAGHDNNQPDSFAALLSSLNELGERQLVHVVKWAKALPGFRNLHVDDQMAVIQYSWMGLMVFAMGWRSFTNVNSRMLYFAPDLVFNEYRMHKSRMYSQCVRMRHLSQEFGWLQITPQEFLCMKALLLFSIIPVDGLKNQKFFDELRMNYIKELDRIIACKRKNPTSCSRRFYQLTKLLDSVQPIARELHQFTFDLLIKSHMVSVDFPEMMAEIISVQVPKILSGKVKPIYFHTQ
experiment.description: Androgen Receptor ELISA assay (PathScan AR ELISA) in VCaP cells: AR degradation, Dmax and DC50
Type: cell-based
experimental.context: VCaP cells; Table 36; read-out: VCaP DC50
property.label: DC50

Query: Find the recorded DC50 belonging to Cc1ncsc1-c1ccc([C@H](C)NC(=O)[C@@H]2C[C@@H](O)CN2C(=O)[C@@H](NC(=O)CN2C[C@H](C)N(CCCc3ccc(C(=O)N[C@H]4C(C)(C)[C@H](Oc5ccc(C#N)c(Cl)c5)C4(C)C)cc3)C[C@H]2C)C(C)(C)C)cc1 [Example 816] and report it.
Response: < 50 nM

Query: Find the recorded DC50 belonging to Cc1ncsc1-c1ccc([C@H](CO)NC(=O)[C@@H]2C[C@@H](O)CN2C(=O)[C@@H](NC(=O)COCCN2[C@H](C)CN(c3ccc(C(=O)N[C@H]4C(C)(C)[C@H](Oc5ccc(C#N)c(Cl)c5)C4(C)C)cn3)C[C@@H]2C)C(C)(C)C)cc1 [Example 826] and report it.
Response: < 50 nM

Query: Find the recorded DC50 belonging to Cc1ncsc1-c1ccc([C@H](C)NC(=O)[C@@H]2C[C@@H](O)CN2C(=O)[C@@H](NC(=O)CN2CCN(CCC3(c4ccc(C(=O)N[C@H]5C(C)(C)[C@H](Oc6ccc(C#N)c(Cl)c6)C5(C)C)cc4)COC3)CC2)C(C)(C)C)cc1 [Example 744] and report it.
Response: > 501 nM

Query: Find the recorded DC50 belonging to Cc1ncsc1-c1ccc([C@H](C)NC(=O)[C@@H]2C[C@@H](O)CN2C(=O)[C@H](C(C)C)n2cc(-c3ccnc(N4CC[C@@H](Nc5ccc(C(=O)N[C@H]6C(C)(C)[C@H](Oc7ccc(C#N)c(Cl)c7)C6(C)C)cc5)C4)c3)cn2)cc1 [Example 596] and report it.
Response: > 501 nM

Query: Find the recorded DC50 belonging to Cc1ncsc1-c1ccc(CNC(=O)[C@@H]2C[C@@H](O)CN2C(=O)[C@H](C(C)C)N2Cc3ccccc3C2=O)c(OCCN2CCN(c3ccc(C(=O)N[C@H]4C(C)(C)[C@H](Oc5ccc(C#N)c(Cl)c5)C4(C)C)cn3)CC2)c1 [Example 732] and report it.
Response: < 50 nM

Query: Find the recorded DC50 belonging to Cc1ncsc1-c1ccc(C(CO)NC(=O)[C@@H]2C[C@@H](O)CN2C(=O)[C@@H](NC(=O)CCC(F)(F)CN2CCN(c3ccc(C(=O)N[C@H]4C(C)(C)[C@H](Oc5ccc(C#N)c(Cl)c5)C4(C)C)cn3)CC2)C(C)(C)C)cc1 (stereo partly shown) [Example 800] and report it.
Response: < 50 nM

Query: Find the recorded DC50 belonging to Cc1ncsc1-c1ccc([C@H](C)NC(=O)[C@@H]2C[C@@H](O)CN2C(=O)[C@@H](NC(=O)COCCCCCC2(c3ccc(C(=O)N[C@H]4C(C)(C)[C@H](Oc5ccc(C#N)c(Cl)c5)C4(C)C)cc3)COC2)C(C)(C)C)cc1 [Example 685] and report it.
Response: < 50 nM

Query: Find the recorded DC50 belonging to Cc1ncsc1-c1ccc(CNC(=O)[C@@H]2C[C@@H](O)CN2C(=O)[C@H](C(C)C)N2Cc3ccc(N4CCN(CCCc5ccc(C(=O)N[C@H]6C(C)(C)[C@H](Oc7ccc(C#N)c(C(F)(F)F)c7)C6(C)C)cc5)CC4)cc3C2=O)cc1 [Example 762] and report it.
Response: > 501 nM

Query: Find the recorded DC50 belonging to Cc1ncsc1-c1ccc([C@H](C)NC(=O)[C@@H]2C[C@@H](O)CN2C(=O)[C@@H](NC(=O)CN2CCN(C3CN(c4ccc(C(=O)N[C@H]5C(C)(C)[C@H](Oc6ccc(C#N)c(Cl)c6)C5(C)C)cn4)C3)CC2)C(C)(C)C)cc1 [Example 795] and report it.
Response: < 50 nM

Query: Find the recorded DC50 belonging to CC(C)C[C@@H](C(=O)N[C@@H](C)C(=O)N1C[C@H](O)C[C@H]1C(=O)N[C@@H](C)c1ccc(Cl)cc1)N1CCN(CCCc2ccc(C(=O)N[C@H]3C(C)(C)[C@H](Oc4ccc(C#N)c(Cl)c4)C3(C)C)cc2)CC1 [Example 738] and report it.
Response: > 501 nM

Query: Find the recorded DC50 belonging to CC(C)(C)[C@H](NC(=O)COCCN1CCN(c2ccc(C(=O)N[C@H]3C(C)(C)[C@H](Oc4ccc(C#N)c(Cl)c4)C3(C)C)cn2)CC1)C(=O)N1C[C@H](O)C[C@H]1C(=O)NCc1ccc(Cl)cc1 [Example 737] and report it.
Response: > 501 nM

Query: Find the recorded DC50 belonging to Cc1ncsc1-c1ccc([C@H](C)NC(=O)[C@@H]2C[C@@H](F)CN2C(=O)[C@@H](NC(=O)COCCN2CCN(c3ccc(C(=O)N[C@H]4C(C)(C)[C@H](Oc5ccc(C#N)c(Cl)c5)C4(C)C)cn3)CC2)C(C)(C)C)cc1 [Example 720] and report it.
Response: > 501 nM

Query: Find the recorded DC50 belonging to Cc1ncsc1-c1ccc([C@H](C)NC(=O)[C@@H]2C[C@@H](O)CN2C(=O)[C@@H](NC(=O)COCCCCCc2ccc(C(=O)N[C@H]3C(C)(C)[C@H](Oc4ccc(C#N)c(C(F)(F)F)c4)C3(C)C)cc2)C(C)(C)C)cc1 [Example 657] and report it.
Response: < 50 nM

Query: Find the recorded DC50 belonging to Cc1ncsc1-c1ccc([C@H](C)NC(=O)[C@@H]2C[C@@H](O)CN2C(=O)[C@@H](NC(=O)CN2CCN(C3CC4(C3)CN(c3ccc(C(=O)N[C@H]5C(C)(C)[C@H](Oc6ccc(C#N)c(Cl)c6)C5(C)C)cn3)C4)CC2)C(C)(C)C)cc1 [Example 809] and report it.
Response: < 50 nM

Query: Find the recorded DC50 belonging to Cc1ncsc1-c1ccc([C@H](C)NC(=O)[C@@H]2C[C@@H](O)CN2C(=O)[C@@H](C(C)C)n2cc(-c3ccnc(OC4CN(c5ccc(C(=O)N[C@H]6C(C)(C)[C@H](Oc7ccc(C#N)c(Cl)c7)C6(C)C)cn5)C4)c3)cn2)cc1 [Example 595] and report it.
Response: < 50 nM

Query: Find the recorded DC50 belonging to CC(=O)N[C@H](C(=O)N1C[C@H](O)C[C@H]1C(=O)N[C@@H](C)c1ccc(-c2scnc2C)cc1)[C@@H](C)OCCCN(C)CCc1ccc(C(=O)N[C@H]2C(C)(C)[C@H](Oc3ccc(C#N)c(Cl)c3)C2(C)C)cc1 [Example 734] and report it.
Response: > 501 nM

This collection of values is drawn from patent US11427548B2.
